- System: Saccharomyces cerevisiae BY4741 SeMeCo community
- PROTOCOL: z-score of subpopulation abundance vs DMSO median, subpopulation auxotrophic for M; higher = larger share of this subpopulation than in DMSO controls
- CONDITION PARAMETERS: 10 µM; 24 h; SM minimal medium; subpopulation (auxotrophy): M
Counter-ions that a name gives are not always drawn.
Note to self: class = bucket of z-score of subpopulation abundance, per one: < -0.1; two: ≥ -0.1 and < 0.4; three: ≥ 0.4

For C=CC[C@@H]1/C=C(\C)C[C@H](C)C[C@H](OC)[C@H]2O[C@@](O)(C(=O)C(=O)N3CCCC[C@H]3C(=O)O[C@H](/C(C)=C/[C@@H]3CC[C@@H](O)[C@H](OC)C3)[C@H](C)[C@@H](O)CC1=O)[C@H](C)C[C@@H]2OC [Tacrolimus (FK506)] , which z-score of subpopulation abundance bin applies? three

Sort into band: COc1ccc2[nH]c([S+]([O-])Cc3ncc(C)c(OC)c3C)nc2c1 (configuration not stated) [Omeprazole Sodium] one

Which bin should I file NC[C@@H]1O[C@H](O[C@H]2[C@@H](O)[C@H](O[C@@H]3[C@@H](O)[C@H](N)C[C@H](N)[C@H]3O[C@H]3O[C@H](CN)[C@@H](O)[C@H](O)[C@H]3N)O[C@@H]2CO)[C@H](N)[C@@H](O)[C@@H]1O [Neomycin sulfate] under? one

Determine which band this compound sits in: c1ccc2[nH]c(-c3cscn3)nc2c1 [Thiabendazole] three

Place this compound in its band: C#C[C@]1(O)CC[C@H]2[C@@H]3CCC4=CCCC[C@@H]4[C@H]3C(=C)C[C@@]21CC [Desogestrel] one

In plain terms, what class is CN[C@@H]1[C@H](O[C@H]2[C@H](O[C@H]3[C@H](O)[C@@H](O)[C@H](N=C(N)N)[C@@H](O)[C@@H]3N=C(N)N)O[C@@H](C)[C@]2(O)C=O)O[C@@H](CO)[C@H](O)[C@H]1O [Streptomycin sulfate] ? one

Just checking, what class would you give CC[C@H](C)C(=O)O[C@H]1C[C@H](O)C=C2C=C[C@H](C)[C@H](CC[C@@H](O)C[C@@H](O)CC(=O)O)[C@H]21 [Pravastatin sodium] here? two

Bin? CCN(CC)CCOC(=O)c1ccc(N)cc1Cl [Chloroprocaine HCl] three

Dear colleague, I would appreciate it if you could identify the bin for OC[C@H]1O[C@H](OCC2O[C@@H](O)[C@H](O)[C@@H](O)[C@@H]2O)[C@H](O)[C@@H](O)[C@H]1O (some centres not stated) [Melibiose] and reply at your convenience. two

Class? Entry: C[N+]1(C)CCC(OC(=O)C(O)(c2ccccc2)C2CCCC2)C1 (configuration not stated) [Glycopyrrolate] two

# bin lookup: classify CO/N=C(\C(=O)N[C@@H]1C(=O)N2C(C(=O)O)=C(Cn3ccc(=N)n3CCO)CS[C@H]12)c1csc(N)n1 [Cefoselis Sulfate] by its z-score of subpopulation abundance three

Which class holds C=C[C@]1(C)C[C@@H](OC(=O)CSC(C)(C)CNC(=O)[C@H](N)C(C)C)[C@]2(C)[C@H](C)CC[C@]3(CCC(=O)[C@H]32)[C@@H](C)[C@@H]1O [Valnemulin HCl] ? two

---

Kindly supply the reported z-score of subpopulation abundance values for the records listed here.
- Tested on: Saccharomyces cerevisiae BY4741 SeMeCo community
- PROTOCOL: z-score of subpopulation abundance vs DMSO median, subpopulation auxotrophic for M; higher = larger share of this subpopulation than in DMSO controls
- CONDITION PARAMETERS: 10 µM; 24 h; SM minimal medium; subpopulation (auxotrophy): M
Where a name gives a salt, the structure may show the parent alone.
Please reply with the value in numeric form only.

Fill in the blank: the reported z-score of subpopulation abundance of O=C(Cn1cnnn1)N[C@@H]1C(=O)N2C(C(=O)O)=C(CSc3nncs3)CS[C@H]12 [Ceftezole sodium] is ____. 0.01

Could you tell me which z-score of subpopulation abundance is on file for CCCc1nn(C)c2c(=O)[nH]c(-c3cc(S(=O)(=O)N4CCN(C)CC4)ccc3OCC)nc12 [Sildenafil Citrate] ? 0.03

Endpoint output: z-score of subpopulation abundance of CN1C2CCC1CC(OC(=O)C(O)c1ccccc1)C2 (stereo not drawn) [Homatropine Bromide] . Value? -0.4

Name the reported z-score of subpopulation abundance value associated with the compound Cc1nc(Nc2ccc(F)cc2)nc(N2CCc3ccccc3C2C)c1C (stereo not drawn) [Revaprazan Hydrochloride] -0.84

I would be grateful if you could share the reported z-score of subpopulation abundance for CN[C@@H]1[C@H](O)[C@H](NC)[C@H]2O[C@@]3(O)C(=O)C[C@@H](C)O[C@H]3O[C@@H]2[C@H]1O [Spectinomycin 2HCl] . -0.21

Would you mind telling me what z-score of subpopulation abundance value was observed for O=C1OCCN1/N=C/c1ccc([N+](=O)[O-])o1 [Furazolidone] ? 1.9

Entry under review: O=C(O)c1cn(C2CC2)c2cc(N3CCNCC3)c(F)cc2c1=O [Ciprofloxacin hydrochloride hydrate] . Reported z-score of subpopulation abundance? 0.57

What does the data say about its z-score of subpopulation abundance? Entry: O=C1CN(/N=C/c2ccc(-c3ccc([N+](=O)[O-])cc3)o2)C(=O)N1 [Dantrolene sodium hemiheptahydrate] 3.93

---

- Tested on: Saccharomyces cerevisiae BY4741 SeMeCo community
- PROTOCOL: z-score of subpopulation abundance vs DMSO median, subpopulation auxotrophic for LU; higher = larger share of this subpopulation than in DMSO controls
- CONDITION PARAMETERS: 10 µM; 24 h; SM minimal medium; subpopulation (auxotrophy): LU
Where a name gives a salt, the structure may show the parent alone.
Provide the reported z-score of subpopulation abundance of each item.
Number, no unit, nothing else.

May I ask what z-score of subpopulation abundance has been recorded for C=CC[N+]1([C@H]2C[C@H]3[C@@H]4CC[C@H]5C[C@H](O)[C@@H](N6CCOCC6)C[C@]5(C)[C@H]4CC[C@]3(C)[C@H]2OC(C)=O)CCCC1 [Rocuronium Bromide] ? -0.06

Quick one: z-score of subpopulation abundance of `C[C@]12CC[C@@H]3c4ccc(O)cc4CC[C@H]3[C@@H]1C[C@@H](O)[C@@H]2O` ? -0.08

May I ask what z-score of subpopulation abundance has been recorded for `OCCN(CCO)c1nc(N2CCCCC2)c2nc(N(CCO)CCO)nc(N3CCCCC3)c2n1` ? -7.03

Using the record for CCC[C@@H]1C[C@@H](C(=O)N[C@@H]([C@H]2O[C@H](SC)[C@H](O)[C@@H](O)[C@H]2O)[C@H](C)Cl)N(C)C1 [Clindamycin HCl] , report its z-score of subpopulation abundance. -0.2

z-score of subpopulation abundance lookup needed for `CCCCC(F)(F)[C@@]1(O)CC[C@H]2[C@@H](CC(=O)[C@@H]2CCCCCCC(=O)O)O1` , thanks. -0.53

Please look up its z-score of subpopulation abundance: CO[C@@H]1[C@@H](OC(N)=O)[C@@H](O)[C@H](Oc2ccc3c(O)c(NC(=O)c4ccc(O)c(CC=C(C)C)c4)c(=O)oc3c2C)OC1(C)C [Novobiocin Sodium] 0.73

I'd like to know its z-score of subpopulation abundance. The compound in question is `Oc1c(Br)cc(Br)c2cccnc12` 6.62

Item `Nc1ccc(S(=O)(=O)Nc2ccnn2-c2ccccc2)cc1` has what recorded z-score of subpopulation abundance? -0.02

Dear colleague, I am looking for the recorded z-score of subpopulation abundance of the following compound: CC[N+](C)(C)c1cccc(O)c1 [Edrophonium chloride] 1.17

Could you share which z-score of subpopulation abundance value was measured for COCCCOc1ccnc(C[S+]([O-])c2nc3ccccc3[nH]2)c1C (stereo unspecified) ? 1.56

Entry C[C@@H](O)[C@H]1C(=O)N2C(C(=O)[O-])=C(SC3Cn4cnc[n+]4C3)[C@H](C)[C@H]12 (stereo partly specified) has what z-score of subpopulation abundance? -1.32

Could you tell me which z-score of subpopulation abundance is on file for CCCCN1CCCC[C@H]1C(=O)Nc1c(C)cccc1C [Levobupivacaine HCl] ? -0.09

Given the compound CN(C)c1ccc(O)c2c1C[C@H]1C[C@H]3[C@H](N(C)C)C(=O)C(C(N)=O)=C(O)[C@@]3(O)C(=O)C1=C2O [Minocycline HCl] , what is its reported z-score of subpopulation abundance? 0.63

Report z-score of subpopulation abundance for CCOc1ccc2ccccc2c1C(=O)N[C@@H]1C(=O)N2[C@@H]1SC(C)(C)[C@@H]2C(=O)O [Nafcillin Sodium] please. 0.04

So what's the measured z-score of subpopulation abundance for this one? c1cnc2cc3c(cc2n1)[C@@H]1CNC[C@H]3C1 [Varenicline Tartrate] -0.66

Bench note: what z-score of subpopulation abundance did CC1(C)S[C@@H]2[C@H](NC(=O)Cc3ccccc3)C(=O)N2[C@H]1C(=O)O [Benzathine penicilline] show? -0.74

Would you mind telling me what z-score of subpopulation abundance value was observed for CN1CCCN=C1/C=C/c1cccs1 [Pyrantel Pamoate] ? -0.11

Need z-score of subpopulation abundance of `O=C(Cn1ccnc1[N+](=O)[O-])NCc1ccccc1` , thanks. -0.43

Query: z-score of subpopulation abundance; subject: CC(=O)O[C@]1(C(C)=O)CC[C@H]2[C@@H]3C[C@H](C)C4=CC(=O)CC[C@]4(C)[C@H]3CC[C@@]21C [Medroxyprogesterone acetate] 0.01

I'd like to know its z-score of subpopulation abundance. The compound in question is `CC/C(=C(/CC)c1ccc(O)cc1)c1ccc(O)cc1` -1.48

Given `Cn1c(=O)c2[nH]cnc2n(C)c1=O` , state its recorded z-score of subpopulation abundance. 1.06

Can you look up the measured z-score of subpopulation abundance of NC[C@@H]1O[C@H](O[C@H]2[C@@H](O)[C@H](O[C@@H]3[C@@H](O)[C@H](N)C[C@H](N)[C@H]3O[C@H]3O[C@H](CN)[C@@H](O)[C@H](O)[C@H]3N)O[C@@H]2CO)[C@H](N)[C@@H](O)[C@@H]1O [Neomycin sulfate] for me? 0.11

Please look up its z-score of subpopulation abundance: `OC1(c2ccc(Cl)c(C(F)(F)F)c2)CCN(CCCC(c2ccc(F)cc2)c2ccc(F)cc2)CC1` 0.13

Which value of z-score of subpopulation abundance has been reported for OCCOCCN1CCN(C2=Nc3ccccc3Sc3ccccc32)CC1 [Quetiapine Fumarate] in the records? -0.19

I am curious: what z-score of subpopulation abundance value has been reported for C=CCN1CCCC1CNC(=O)c1cc2nn[nH]c2cc1OC (stereo unspecified) [Alizapride HCl] ? 0.9

Given the entry `CCn1cc(C(=O)O)c(=O)c2cnc(N3CCNCC3)nc21` , report its measured z-score of subpopulation abundance. 0.45

Return reported z-score of subpopulation abundance; argument: CCC[S+]([O-])c1ccc2[nH]c(NC(=O)OC)nc2c1 (stereo unspecified) [Albendazole Oxide] -0.51

Given the compound CN(C)CCC=C1c2ccccc2CCc2ccccc21 [Amitriptyline HCl] , what is its reported z-score of subpopulation abundance? -1.69

# query: z-score of subpopulation abundance of entry CCC1(C)CC(=O)NC1=O (stereo unspecified) [Ethosuximide] 0.79

Entry CC(C)[C@H]1CC[C@H](C(=O)N[C@H](Cc2ccccc2)C(=O)O)CC1 [Nateglinide] : reported z-score of subpopulation abundance = ? 0

Reported z-score of subpopulation abundance for COc1cc([C@@H]2c3cc4c(cc3[C@@H](O[C@@H]3O[C@@H]5CO[C@@H](c6cccs6)O[C@H]5[C@H](O)[C@H]3O)[C@H]3COC(=O)[C@H]23)OCO4)cc(OC)c1O [Teniposide] : what is it? 0.76

Just for reference, the supplement of paper PMC8975748 is where these values come from.
